protocolDescription: antimalarial activity against Dd2 strain (AID 2302)
cond: P. falciparum Dd2 in RBCs, LDH growth readout, 72 h; at 2 µM
Calls of active or inactive are those of the source.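 The calls were made as follows: active = growth inhibition above 50% at the single 2 µM test dose, taken to imply half-maximal potency below 2 µM; inactive = the rest.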
Classes used: active, inactive

>>> assignedcategory("Fc1ccc2nc(-c3cccc(-c4cccc(CN5CCN(c6cnccn6)CC5)c4)c3)[nH]c2c1")
"inactive"
>>> assignedcategory("COc1nc2c(CCN3CC[C@H](NCc4cc(C#N)c5c(c4)CCO5)[C@H](O)C3)ccnc2cc1F")
"active"
>>> assignedcategory("CCC(C)(C)c1ccc(S(=O)(=O)Nc2ccc(Cl)c(OCCN3CCCCC3)c2)cc1")
"active"
>>> assignedcategory("COc1nc2c(N3CCN(CCNCc4ccc5c(n4)NC(=O)CO5)CC3)ccnc2cc1F")
"inactive"
>>> assignedcategory("CC(C)(C)c1cc(C(=O)N2CCN(c3ccc(C(F)(F)F)cn3)CC2)n(Cc2ccc(F)cc2)n1")
"inactive"
>>> assignedcategory("COc1cc(CNCCCCCCNCc2cc(OC)c(OC)c3ccccc23)c2ccccc2c1OC")
"active"
>>> assignedcategory("CC(C)COc1ccc(Cl)cc1Cc1ccc(-c2nc3ccc(N4CCN(C)CC4)cc3[nH]2)o1")
"inactive"
>>> assignedcategory("CN(CCCCN)Cc1ccc(-c2ccc(Cl)cc2)cc1")
"inactive"
>>> assignedcategory("CCOc1ccccc1N1CCN(CCCNC(=O)/C(=C/C=C/c2cc3cc(Cl)c(Cl)cc3[nH]2)OC)CC1")
"active"
>>> assignedcategory("CC(C)[C@H]1C(=O)N(S(C)(=O)=O)[C@H]2CCN(C(=O)c3ccc(CN4CCCCC4)c([N+](=O)[O-])c3)[C@H]12")
"active"
>>> assignedcategory("CCCC1N=C(N)N=C(N)N1c1cccc([N+](=O)[O-])c1 (centres undefined)")
"inactive"
>>> assignedcategory("Cc1cc(NCCC(=O)NCCOc2ccccc2)nc(NCc2ccccc2C)n1")
"inactive"
>>> assignedcategory("CC(C)CCN1CCCN(Cc2cccc(C(=O)Nc3ccc(C(C)(C)C)cc3)c2)CC1")
"inactive"
>>> assignedcategory("COc1ccc2c(c1)[nH]c1c(/C=C/c3ccc([N+](=O)[O-])cc3)nccc12")
"active"
>>> assignedcategory("Fc1ccc(-c2nc(NCc3cccc(C(F)(F)F)c3)nn2-c2cccc(C(F)(F)F)c2)cc1C(F)(F)F")
"active"
>>> assignedcategory("CC(C)c1ccc(OCCCON2C(N)=NC(N)=NC2(C)C)cc1")
"active"
>>> assignedcategory("O=C(/C=C/c1ccc(Cl)c(Cl)c1)NCCCCCCN1CCN(C(=O)Nc2cccc(Cl)c2)CC1")
"inactive"
>>> assignedcategory("CC1CN=C(c2cccc(NC(=O)Nc3cccc(C4=NCC(C)N4)c3)c2)N1 (centres undefined)")
"active"
>>> assignedcategory("c1ccc(-c2nnc(-c3ccccn3)nc2NC2CCCCC2)cc1")
"active"

* * *

protocolDescription: antimalarial activity against Dd2 strain (AID 2302)
cond: P. falciparum Dd2 in RBCs, LDH growth readout, 72 h; at 2 µM
Calls of active or inactive are those of the source.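 Rule for the calls: active = growth inhibition above 50% at the single 2 µM test dose, taken to imply half-maximal potency below 2 µM; inactive = the rest.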
Classes used: true (active), false (inactive)

>>> assignedcategory("O=C(N[C@@H](Cc1ccccc1)C(=O)NC1CCCCCC1)c1ccc(O)c(-c2cccc(C(F)(F)F)c2)c1")
"true"
>>> assignedcategory("Cc1ccc(-c2nc(Nc3ccncc3)c3ccccc3n2)s1")
"false"
>>> assignedcategory("O=C(Nc1ccc2nc(-c3ccc4nc(NC(=O)C5CCCCC5)sc4c3)[nH]c2c1)C1CCCCC1")
"true"
>>> assignedcategory("COc1cccc2c(NN=Cc3ccccc3[N+](=O)[O-])ccnc12")
"false"
>>> assignedcategory("CCCCC1=CC2C(=O)C(C(=O)OC)=CN=C2C=C1OCc1ccccc1 (stereo not given)")
"true"
>>> assignedcategory("CC(=O)NCCNCc1cccc(C(=O)NCc2cccc(C(F)(F)F)c2)c1")
"false"
>>> assignedcategory("O=C(Cc1ccc([N+](=O)[O-])cc1)N1CCc2cc3nccc(N4CCN5CCC[C@H]5C4)c3cc21")
"false"
>>> assignedcategory("N#Cc1cccc(C(=O)Nc2cccc(-c3ccc(CN4CCCC4)cc3)c2)c1")
"false"
>>> assignedcategory("O=C(/C=C/c1ccc(Cl)c(Cl)c1)N1CCC(CCN2CCC(c3c[nH]c4ccccc34)CC2)CC1")
"false"
>>> assignedcategory("COc1ccc2nccc(N(C)CC3(O)CCC(NCc4cc5c(cn4)OCCO5)CC3)c2n1 (stereo not given)")
"false"
>>> assignedcategory("O=C(C=Cc1ccc(F)cc1)N1CCN(S(=O)(=O)c2ccc(Cl)cc2)CC1")
"true"
>>> assignedcategory("O=C(NC1CCN(Cc2ccc3c(c2)OCCO3)CC1)c1ccc(-c2cccc(C(F)(F)F)c2)s1")
"false"
>>> assignedcategory("CCCCCCCC1=NN2C(=N)C(=Cc3cc(Br)c(OCc4ccc(F)cc4)c(OCC)c3)C(=O)N=C2S1")
"false"
>>> assignedcategory("O=C(Nc1ccc(C(F)(F)F)cc1)NC1CCN(c2ccnc3cc(Cl)ccc23)CC1")
"true"
>>> assignedcategory("Cc1cc(N(C)CCCN(C)C)nc(Nc2ccc(Cl)cc2)n1")
"true"
>>> assignedcategory("CC(=O)c1ccc(-c2cccc3c(CC(=O)Nc4ccc5nccc(N6CCN(C)CC6)c5c4)cccc23)cc1")
"true"
>>> assignedcategory("Cn1cc(CN2CCCC(COC(c3ccc(F)cc3)c3ccc(F)cc3)C2)cn1 (stereo not given)")
"true"
>>> assignedcategory("CC(C)C[C@H](NC(=O)c1cccc(F)c1)C(=O)N[C@H](/C=N/NC(=O)c1ccccc1)CCc1ccccc1")
"true"
>>> assignedcategory("COc1cccc(Nc2nnc(SCC(=O)NNC(=O)c3ccccn3)s2)c1")
"true"
>>> assignedcategory("COc1ccc(C(=O)N2CCC(C(=O)NC(C)c3ccc(-n4ccnc4)cc3)CC2)c2ccccc12 (stereo not given)")
"true"
>>> assignedcategory("O=C(Nc1ccc(C(=O)N(Cc2ccc3c(c2)OCO3)C2CCCC2)cc1)c1cccs1")
"true"
>>> assignedcategory("Cc1ccc(C(c2nnnn2C2CCCC2)N(Cc2ccco2)Cc2ccccc2Cl)cc1 (stereo not given)")
"true"
>>> assignedcategory("CNC(=O)C1Cc2c([nH]c3ccc(Br)cc23)C2(CCN(CCc3ccccc3)CC2)N1 (stereo not given)")
"true"
>>> assignedcategory("COc1ccc2c(NN=Cc3ccccc3[N+](=O)[O-])cc(C)nc2c1")
"true"
>>> assignedcategory("Oc1ccccc1-c1nc2cccnc2n1CCc1cccc(C(F)(F)F)c1")
"false"
>>> assignedcategory("Cc1cc(N(C)C)nc(Nc2ccc(NC(=O)COc3ccccc3)cc2)n1")
"true"
>>> assignedcategory("Nn1c(=O)oc2ccc(Cl)cc2c1=O")
"true"
>>> assignedcategory("O=C(NCCN1CCOCC1)c1ccc(N2CCC(Oc3ccc4ccccc4c3)CC2)nc1")
"false"
>>> assignedcategory("CN(C)S(=O)(=O)c1ccc(C(=O)N(c2nc(-c3ccccc3)cs2)C2CCCCC2)cc1")
"false"
>>> assignedcategory("Cc1cc(NCCCN2CCCC2=O)n2c(nc3ccccc32)c1C#N")
"false"
>>> assignedcategory("CCc1c(CCNCCCCCCNCCc2ccc([N+](=O)[O-])cc2)ccc(O)c1O")
"false"
>>> assignedcategory("CCOc1cc(C(=O)NC2CC(C)(C)N(C)C(C)(C)C2)ccc1-c1nc2cc(Cl)c(Cl)cc2[nH]1")
"false"
>>> assignedcategory("CCn1c(C(C)C)cc2c3c(N)nc(N)nc3ccc21")
"false"
>>> assignedcategory("Cc1cccc2[nH]c(-c3cccc(-c4cccc(CNCCc5ccncc5)c4)c3)nc12")
"true"
>>> assignedcategory("CC[C@H]1CN(Cc2cccc(O)c2)CC[C@H]1CCCc1ccnc2ccc(O)cc12")
"true"
>>> assignedcategory("COc1ccc(CN2CCN(C(=O)c3cccs3)CC2)c(O)c1")
"false"
>>> assignedcategory("COc1ccc(CN2CCCN(Cc3cccc(NC(=O)c4ccc(-c5ccccc5)cc4)c3)CC2)cc1")
"false"
>>> assignedcategory("COc1cccc2c(NN=Cc3ccc(Cl)cc3)ccnc12")
"false"
>>> assignedcategory("CCCC(=O)Nc1ccc(OCCCN(Cc2ccccc2F)c2ccc(C#N)c(C(F)(F)F)c2)cc1")
"true"
>>> assignedcategory("CC(=O)Nc1cccc(C(=O)Nc2ccc(-c3cccc(-c4nc5ccc(C(F)(F)F)cc5[nH]4)c3)cc2)c1")
"true"

* * *

assayedTarget: Protein kinase 7 (PK7), Plasmodium falciparum 3D7 (PF3D7_0213400)
protocolDescription: inhibition of Plasmodium PK7 catalytic activity – biochemical, TCAMS antimalarial set, Kinase-Glo luminescence (AID 1159587)
cond: recombinant PfPK7, Kinase-Glo ATP depletion luminescence
Active and inactive are the calls of the source. How the calls were made is not given here.
measuredQuantity: outcome

>>> testresult("c1ccc(CN2CCC(NCc3ccccc3-c3cccc(CNC4CCCC4)c3)CC2)cc1")
"inactive"
>>> testresult("CC(C)(C)OC(=O)NCc1ccc(Nc2nnc(-c3cccc(C(=O)NCCC(c4ccccc4)c4ccccc4)c3)o2)cc1")
"inactive"
>>> testresult("O=C(Cn1c(CCc2cccc(F)c2F)cc(=O)c2cccnc21)N(CCN1CCCC1)Cc1ccc(-c2ccc(C(F)(F)F)cc2)cc1")
"inactive"
>>> testresult("COc1cc(Cc2cnc(N)nc2N)cc(OCCCCCC(=O)O)c1OC")
"inactive"
>>> testresult("COc1ccc(CNCCCCCCCNCc2ccc(Cl)c(Cl)c2)cc1Cl")
"inactive"
